- Assay target: UniProtKB P07148
- Sequence (P07148 1-127): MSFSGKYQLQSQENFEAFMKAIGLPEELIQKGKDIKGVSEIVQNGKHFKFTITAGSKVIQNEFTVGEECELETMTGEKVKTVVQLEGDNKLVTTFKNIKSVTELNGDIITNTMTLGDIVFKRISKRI
Quantity measured: pKd
Please note pKd is a logarithmic value: minus log10 of concentration in mol/L. Answer with that number alone.

Prompt: Give pKd for CC(C)CCC[C@@H](C)[C@H]1CC[C@H]2[C@@H]3CC=C4C[C@@H](O)CC[C@]4(C)[C@H]3CC[C@]12C
Completion: 5.89

* * *

- Assay target: human T94A variant FABP1 (Homo sapiens, UniProt P07148, T94A)
- Assay: Isothermal titration calorimetry
Quantity measured: Kd (µM)
Give just the number in µM; leave the unit off.

Prompt: Item CC(C)CCC[C@@H](C)[C@H]1CC[C@H]2[C@@H]3CC=C4C[C@@H](O)CC[C@]4(C)[C@H]3CC[C@]12C : provide Kd
Completion: 0.5

* * *

- Assay target: rat FABP1 (Rattus norvegicus, UniProt P02692)
- Sequence (P02692 whole entry): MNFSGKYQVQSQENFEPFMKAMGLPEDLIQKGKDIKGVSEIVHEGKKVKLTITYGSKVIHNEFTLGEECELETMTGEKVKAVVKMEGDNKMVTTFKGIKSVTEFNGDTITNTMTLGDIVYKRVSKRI
- Assay: Isothermal titration calorimetry
- Type: binding
Quantity measured: Kd (nM)
The response must be a number in nM with no trailing unit.

Prompt: Please indicate recorded Kd of CC(C)CCC[C@@H](C)[C@H]1CC[C@H]2[C@@H]3CC=C4C[C@@H](O)CC[C@]4(C)[C@H]3CC[C@]12C [cholesterol] measured with rat FABP1 (Rattus norvegicus, UniProt P02692).
Completion: 600

* * *

- Assay target: human WT FABP1 T94T (Homo sapiens, UniProt P07148)
- Assay: NBD-cholesterol fluorescence binding assay
- Experimental parameters: NBD-cholesterol 20nM, FABP1 0–3.6 μM, hyperbola fit, 24°C
Quantity measured: pKd
Quick note: pKd means taking -log10 of the concentration in moles per liter.

Prompt: Answer with the recorded pKd for the compound listed here: C[C@H](CNc1ccc([N+](=O)[O-])c2nonc12)[C@H]1CC[C@H]2[C@@H]3CC=C4C[C@@H](O)CC[C@]4(C)[C@H]3CC[C@]12C
Completion: 5.75

* * *

- Assay target: human FABP1 T94A variant (Homo sapiens, UniProt P07148, T94A)
- Assay: NBD-cholesterol fluorescence binding assay
- Experimental parameters: NBD-cholesterol 20nM, FABP1 0–3.6 μM, hyperbola fit, 24°C
Quantity measured: Kd (nM)
Express it in nM; write the number only.

Prompt: Lab note: human FABP1 T94A variant (Homo sapiens, UniProt P07148, T94A) assay, enter Kd for C[C@H](CNc1ccc([N+](=O)[O-])c2nonc12)[C@H]1CC[C@H]2[C@@H]3CC=C4C[C@@H](O)CC[C@]4(C)[C@H]3CC[C@]12C here
Completion: 510

Reference source: paper PMC4408243
